Record form. Attribute: EC50. Fill in for each entry.
- System: human TLR7 (Homo sapiens (Human))
- Sequence (Q9NYK1 27-1049): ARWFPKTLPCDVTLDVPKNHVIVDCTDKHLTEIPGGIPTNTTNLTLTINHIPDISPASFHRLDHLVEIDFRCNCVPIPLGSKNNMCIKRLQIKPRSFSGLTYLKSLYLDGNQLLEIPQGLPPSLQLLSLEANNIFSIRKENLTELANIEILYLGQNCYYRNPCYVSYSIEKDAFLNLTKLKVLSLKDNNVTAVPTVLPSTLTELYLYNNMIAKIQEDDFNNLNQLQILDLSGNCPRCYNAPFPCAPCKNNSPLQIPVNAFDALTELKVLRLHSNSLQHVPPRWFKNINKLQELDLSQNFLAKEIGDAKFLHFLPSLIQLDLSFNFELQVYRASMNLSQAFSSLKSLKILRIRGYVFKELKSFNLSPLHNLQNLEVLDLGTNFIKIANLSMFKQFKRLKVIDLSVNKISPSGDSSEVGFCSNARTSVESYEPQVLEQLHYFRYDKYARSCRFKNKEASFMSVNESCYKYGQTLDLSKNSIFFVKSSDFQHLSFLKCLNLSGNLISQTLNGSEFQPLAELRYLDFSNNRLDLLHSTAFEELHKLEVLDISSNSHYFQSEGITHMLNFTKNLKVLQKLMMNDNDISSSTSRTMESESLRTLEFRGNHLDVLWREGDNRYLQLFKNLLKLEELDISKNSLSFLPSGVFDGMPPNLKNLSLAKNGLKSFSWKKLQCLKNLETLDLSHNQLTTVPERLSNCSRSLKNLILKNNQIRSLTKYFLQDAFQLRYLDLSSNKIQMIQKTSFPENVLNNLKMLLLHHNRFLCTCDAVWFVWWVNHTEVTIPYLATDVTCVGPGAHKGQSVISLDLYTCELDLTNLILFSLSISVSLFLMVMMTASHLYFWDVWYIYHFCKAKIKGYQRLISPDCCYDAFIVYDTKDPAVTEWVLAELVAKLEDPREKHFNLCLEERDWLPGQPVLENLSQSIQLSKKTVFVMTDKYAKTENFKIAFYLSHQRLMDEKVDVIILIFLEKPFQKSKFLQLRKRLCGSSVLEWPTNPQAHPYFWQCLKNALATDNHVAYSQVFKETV
- Experimental Protocol: HEK-Blue human TLR7 cells, NF-κB SEAP reporter assay
- Measurement Setup: stimulation for 20 hours

For orientation, consider the following solved cases.
>  <Molecule>
CCCN(CCCOCCOCCN)C(=O)C1=Cc2ccc(C(=O)Nc3cccc(C)c3)cc2N=C(N)C1

>  <Measure>
EC50

>  <Result>
> 100 µM

$$$$
>  <Molecule>
CCCN(CCC)C(=O)C1=Cc2ccc(C(=O)Nc3ccn(C)n3)cc2N=C(N)C1

>  <Measure>
EC50

>  <Result>
38 µM

$$$$
>  <Molecule>
CCCN(CCC)C(=O)C1=Cc2ccc(C(=O)Nc3cncc(CCc4ccc(OC)cc4)c3)cc2N=C(N)C1

>  <Measure>
EC50

>  <Result>
> 100 µM

$$$$

The following molecules each have a reported value; give each one's EC50.
1. CCCN(CCC)C(=O)C1=Cc2ccc(C(=O)Nc3cc(C)cc(CN)c3)cc2N=C(N)C1
2. CCCN(CCC)C(=O)C1=Cc2ccc(C(=O)Nc3cccc(C)c3)cc2N=C(N)C1
3. CCCN(CCC)C(=O)C1=Cc2ccc(C(=O)Nc3cccc(CCN)c3)cc2N=C(N)C1 [Example 17]
4. CCCN(CCC)C(=O)C1=Cc2ccc(C(=O)Nc3cccc(CN)c3)cc2N=C(N)C1
5. CCCN(CCC)C(=O)C1=Cc2ccc(C(=O)Nc3cncnc3)cc2N=C(N)C1
6. CCCN(CCCOCCCN)C(=O)C1=Cc2ccc(C(=O)Nc3cccc(C)c3)cc2N=C(N)C1
7. CCCN(CCC)C(=O)C1=Cc2ccc(C(=O)Nc3cccnc3)cc2N=C(N)C1

["61 µM", "> 100 µM", "> 100 µM", "> 100 µM", "> 100 µM", "> 100 µM", "80.8 µM"]

The following molecules each have a reported value; give each one's EC50.
1. CCCN(CCC)C(=O)C1=Cc2ccc(C(=O)Nc3cncc(CCN)c3)cc2N=C(N)C1
2. CCCN(CCC)C(=O)C1=Cc2ccc(C(=O)Nc3ccc(CO)nc3)cc2N=C(N)C1
3. CCCN(CCC)C(=O)C1=Cc2ccc(C(=O)Nc3cncc(CN(C)C)c3)cc2N=C(N)C1
4. CCCN(CCC)C(=O)C1=Cc2ccc(C(=O)Nc3cncc(CCCCCN)c3)cc2N=C(N)C1
5. CCCN(CCC)C(=O)C1=Cc2ccc(C(=O)Nc3cncc(CO)c3)cc2N=C(N)C1
6. CCCN(CCC)C(=O)C1=Cc2ccc(C(=O)Nc3ccccc3C)cc2N=C(N)C1
7. CCCN(CCC)C(=O)C1=Cc2ccc(C(=O)Nc3cncc(OCCN)c3)cc2N=C(N)C1
8. CCCN(CCC)C(=O)C1=Cc2ccc(C(=O)Nc3cccc(C(=O)N4CCCC4)c3)cc2N=C(N)C1

> 100 µM
> 100 µM
> 100 µM
> 100 µM
> 100 µM
28 µM
> 100 µM
> 100 µM
